Kindly state CLhep predicted at 1 µM for each of the entries shown.
# Experimental Protocol: Determination of metabolic stability in vitro (calculation of hepatic in vivo blood clearance)
# Assay type: in vitro ADME
# Applied Conditions: pH 7.4, human liver microsomes, calculated from half-life, read-out: calculated hepatic in vivo blood clearance (CL) (converted)
Numbers only here, please. The scale is L/h/kg.

Lookup: What value of CLhep predicted at 1 µM has been reported for the following molecule? `Cc1nc(Cl)cn1-c1ccc(CN2C(=S)N(c3ccc(C#N)c(C(F)(F)F)c3)C(=O)C2(C)C)cn1`
Found: 0.4

Lookup: What value of CLhep predicted at 1 µM has been reported for the following molecule? `CC1(C)C(=O)N(c2ccc(C#N)c(C(F)(F)F)c2)C(=S)N1Cc1ccc(-n2ccnc2)nc1`
Found: 0.26

Lookup: What value of CLhep predicted at 1 µM has been reported for the following molecule? `CC1(C)C(=O)N(c2ccc(C#N)c(C(F)(F)F)c2)C(=S)N1Cc1ccc(N2CCS(=N)(=O)CC2)nc1`
Found: 0.48

Lookup: What value of CLhep predicted at 1 µM has been reported for the following molecule? `Cc1nc(C(F)(F)F)ccc1CN1C(=S)N(c2ccc(C#N)c(C(F)(F)F)c2)C(=O)C1(C)C`
Found: 0.19
